System: tRNA^phe (yeast) (RNA, tRNA) GCGGAUUUAGCUCAGUUGGGAGAGCGCCAGACUGAAGAUCUGGAGGUCCUGUGUUCGAUCCACAGAAUUCGCACCA
Test: UV melting, 260 nm
Conditions: 10 mM Na+; citrate-phosphate, pH 7.0; 50 µM tRNA nucleotides; saturating alkaloid; average Tm 50 °C alone; per base
result type: ΔTm (°C)

For this compound ( COc1ccc2cc3[n+](cc2c1OCC(=O)NCCc1ccccc1)CCc1cc2c(cc1-3)OCO2 ), measured ΔTm is 8.0

For this compound ( COc1ccc2cc3[n+](cc2c1OCC(=O)NCc1ccccc1)CCc1cc2c(cc1-3)OCO2 ), measured ΔTm is 7.0

(A) COc1ccc2cc3[n+](cc2c1OCC(=O)Nc1ccccc1)CCc1cc2c(cc1-3)OCO2
(B) COc1ccc2cc3[n+](cc2c1OC)CCc1cc2c(cc1-3)OCO2
(C) COc1ccc2cc3[n+](cc2c1O)CCc1cc2c(cc1-3)OCO2
Ask: List these items ordered by ΔTm, big to small. Please express your ranking as an ordered list of the labels.
Result: A, B, C
